src = patent US9012433B2

# method: in vitro
# Assay type: cell-based
# assay.context: African green monkey
# Protocol: Mammalian cell cytotoxicity was assessed to evaluate potential in vivo risks associated with the tetracycline compounds of the invention. A soluble, non-toxic redox dye (“Resazurin”; Alamar Blue) was used to assess a tetracycline compound's effect on cellular metabolism. […] Fluorescence measurements were taken (excitation 535 nm, emission 590 nm) and toxic effects in treated versus control cells were compared based on the degree of fluorescence in each well.
measured.attribute: IC50 at 24 h

| molecule | IC50 at 24 h |
| --- | --- |
| CN(C)[C@@H]1C(O)=C(C(N)=O)C(=O)[C@@]2(O)C(O)=C3C(=O)c4c(O)ccc(CNOCC(F)(F)F)c4C[C@H]3C[C@@H]12 | < 35 µg/mL |
| CN(C)c1ccc(O)c2c1C[C@H]1C[C@H]3[C@H](N(C)C)C(O)=C(C(N)=O)C(=O)[C@@]3(O)C(O)=C1C2=O [Minocycline, reference compound] | > 75 µg/mL |
| C[C@H]1c2cccc(O)c2C(=O)C2=C(O)[C@]3(O)C(=O)C(C(N)=O)=C(O)[C@@H](N(C)C)[C@@H]3[C@@H](O)[C@@H]21 [Doxycycline, reference compound] | > 75 µg/mL |
| CC1CCN(Cc2cccc3c2C[C@H]2C[C@H]4[C@@H](N(C)C)C(O)=C(C(N)=O)C(=O)[C@@]4(O)C(O)=C2C3=O)CC1 | > 75 µg/mL |

Data request: Hello, please tell me recorded IC50 at 24 h for this one: CCO/N=C(\C)c1cc(N)c(O)c2c1C[C@H]1C[C@H]3[C@H](N(C)C)C(O)=C(C(N)=O)C(=O)[C@@]3(O)C(O)=C1C2=O
Data returned: > 75 µg/mL

Data request: Hello, please tell me recorded IC50 at 24 h for this one: COC(=O)CONCc1ccc(O)c2c1C[C@H]1C[C@H]3[C@H](N(C)C)C(O)=C(C(N)=O)C(=O)[C@@]3(O)C(O)=C1C2=O
Data returned: < 35 µg/mL
